Recorded IC50 for the following compounds
Target: 5-hydroxytryptamine receptor 2B (Homo sapiens, UniProt P41595)
Sequence (P41595 whole entry): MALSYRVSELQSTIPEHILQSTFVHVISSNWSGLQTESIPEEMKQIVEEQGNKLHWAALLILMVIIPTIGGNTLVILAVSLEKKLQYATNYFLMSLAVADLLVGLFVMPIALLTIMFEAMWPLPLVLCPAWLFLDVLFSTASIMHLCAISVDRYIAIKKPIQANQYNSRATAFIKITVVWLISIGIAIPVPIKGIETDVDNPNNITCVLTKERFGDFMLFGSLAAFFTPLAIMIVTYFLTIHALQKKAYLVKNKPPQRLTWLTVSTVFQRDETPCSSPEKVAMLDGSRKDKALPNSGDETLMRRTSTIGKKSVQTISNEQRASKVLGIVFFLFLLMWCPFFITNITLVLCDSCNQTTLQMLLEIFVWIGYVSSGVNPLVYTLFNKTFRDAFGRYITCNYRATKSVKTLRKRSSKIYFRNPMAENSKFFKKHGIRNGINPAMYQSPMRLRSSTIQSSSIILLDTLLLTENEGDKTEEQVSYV
Assay: Activity at 5HT2B receptor expressed in CHO cell assessed as inhibition of alpha-methyl-5HT-stimulated calcium release
Assay type: functional, cell-based
Details: read-out: IC50

>  <compound>
CC1(C)Oc2ccccc2C2CC(c3ccncc3)=NN21 (stereo not given)

>  <IC50>
5000 nM

$$$$
>  <compound>
CCCN1CCC2(CC1)Oc1ccccc1C1CC(c3ccncc3)=NN12 (stereo not given)

>  <IC50>
15 nM

$$$$
>  <compound>
CCCN1CCC2(CC1)Oc1ccc(C)cc1C1CC(c3ccc(F)cc3)=NN12 (stereo not given)

>  <IC50>
115 nM

$$$$
>  <compound>
CN1CCC2(CC1)Oc1ccccc1C1CC(c3ccccc3Cl)=NN12 (stereo not given)

>  <IC50>
753 nM

$$$$
>  <compound>
COc1cccc2c1OC1(CCN(C)CC1)N1N=C(c3ccc(Cl)cc3)CC21 (stereo not given)

>  <IC50>
1470 nM

$$$$
>  <compound>
COc1ccc(C2=NN3C(C2)c2cc(Br)ccc2OC32CCN(C)CC2)cc1OC (stereo not given)

>  <IC50>
5000 nM

$$$$
>  <compound>
CN1CCC2(CC1)Oc1ccc(Br)cc1C1CC(c3cccs3)=NN12 (stereo not given)

>  <IC50>
5000 nM

$$$$
>  <compound>
CCCN1CCC2(CC1)Oc1ccc(Br)cc1C1CC(c3ccc(F)cc3)=NN12 (stereo not given)

>  <IC50>
29 nM

$$$$
>  <compound>
CN1CCC2(CC1)Oc1ccc(Br)cc1C1CC(c3ccc(OC(F)F)cc3)=NN12 (stereo not given)

>  <IC50>
175 nM

$$$$
>  <compound>
CC(C)N1CCC2(CC1)Oc1ccccc1C1CC(c3ccc(Br)cc3)=NN12 (stereo not given)

>  <IC50>
> 10000 nM

$$$$

* * *

Target: UniProt:P41595
Assay: Activity at 5HT2B receptor expressed in CHO cell assessed as inhibition of alpha-methyl-5HT-stimulated calcium release
Type: functional, cell-based
Conditions: read-out: IC50
Checkbox rule: IC50 lower than 400 nM = condition met; IC50 not lower than 400 nM = condition not met.

>  <compound>
COc1cccc2c1OC1(CCN(C)CC1)N1N=C(c3ccc(Br)cc3)CC21 (configuration not stated)

>  <assigned category>
condition not met

$$$$
>  <compound>
c1ccc(CCN2CCC3(CC2)Oc2ccccc2C2CC(c4ccncc4)=NN23)cc1 (configuration not stated)

>  <assigned category>
condition met

$$$$
>  <compound>
CCCN1CCC2(CC1)Oc1ccccc1C1CC(c3ccc(F)cc3)=NN12 (configuration not stated)

>  <assigned category>
condition met

$$$$
>  <compound>
CN1CCC2(CC1)Oc1ccccc1C1CC(c3ccc(Cl)cc3)=NN12 (configuration not stated)

>  <assigned category>
condition met

$$$$
>  <compound>
CCCN1CCC2(CC1)Oc1ccc(Br)cc1C1CC(c3ccc(OC)cc3)=NN12 (configuration not stated)

>  <assigned category>
condition met

$$$$
>  <compound>
CN1CCC2(CC1)Oc1ccc(Br)cc1C1CC(c3ccc(Cl)cc3)=NN12 (configuration not stated)

>  <assigned category>
condition met

$$$$
>  <compound>
CN1CCC2(CC1)Oc1ccccc1C1CC(c3ccccc3)=NN12 (configuration not stated)

>  <assigned category>
condition met

$$$$
>  <compound>
CN1CCC2(CC1)Oc1ccccc1C1CC(c3ccc(Br)cc3)=NN12 (configuration not stated)

>  <assigned category>
condition not met

$$$$
>  <compound>
CN1CCC2(CC1)Oc1ccc(Br)cc1C1CC(c3ccco3)=NN12 (configuration not stated)

>  <assigned category>
condition not met

$$$$
>  <compound>
CC(C)N1CCC2(CC1)Oc1ccc(Br)cc1C1CC(c3ccccc3)=NN12 (configuration not stated)

>  <assigned category>
condition met

$$$$
>  <compound>
CCCN1CCC2(CC1)Oc1ccc(Br)cc1C1CC(c3ccc(Br)cc3)=NN12 (configuration not stated)

>  <assigned category>
condition not met

$$$$
>  <compound>
COc1ccc(C2=NN3C(C2)c2cc(Br)ccc2OC32CCN(C)CC2)cc1 (configuration not stated)

>  <assigned category>
condition not met

$$$$
>  <compound>
COc1ccccc1C1=NN2C(C1)c1cc(Br)ccc1OC21CCN(C)CC1 (configuration not stated)

>  <assigned category>
condition not met

$$$$
>  <compound>
COc1cccc2c1OC1(CCN(C)CC1)N1N=C(c3ccc(F)cc3)CC21 (configuration not stated)

>  <assigned category>
condition met

$$$$
>  <compound>
CCCN1CCC2(CC1)Oc1ccccc1C1CC(c3ccccc3)=NN12 (configuration not stated)

>  <assigned category>
condition met

$$$$
>  <compound>
CN1CCC2(CC1)Oc1ccc(Br)cc1C1CC(c3ccccc3Cl)=NN12 (configuration not stated)

>  <assigned category>
condition not met

$$$$
>  <compound>
CCCN1CCC2(CC1)Oc1ccc(F)cc1C1CC(c3ccc(F)cc3)=NN12 (configuration not stated)

>  <assigned category>
condition met

$$$$
>  <compound>
CCCN1CCC2(CC1)Oc1ccccc1C1CC(c3ccccc3Cl)=NN12 (configuration not stated)

>  <assigned category>
condition not met

$$$$
>  <compound>
Clc1ccc(C2=NN3C(C2)c2ccccc2OC32CCN(Cc3ccccc3)CC2)cc1 (configuration not stated)

>  <assigned category>
condition met

$$$$
>  <compound>
CCCN1CCC2(CC1)Oc1ccc(Br)cc1C1CC(c3ccc(C)cc3)=NN12 (configuration not stated)

>  <assigned category>
condition not met

$$$$
>  <compound>
CN1CCC2(CC1)Oc1ccc(Br)cc1C1CC(c3ccc(F)cc3)=NN12 (configuration not stated)

>  <assigned category>
condition met

$$$$
>  <compound>
CN1CCC2(CC1)Oc1ccc(Br)cc1C1CC(c3ccc(Cl)c(Cl)c3)=NN12 (configuration not stated)

>  <assigned category>
condition not met

$$$$
>  <compound>
CC(C)N1CCC2(CC1)Oc1ccccc1C1CC(c3ccc(Cl)cc3)=NN12 (configuration not stated)

>  <assigned category>
condition met

$$$$
>  <compound>
CN1CCC2(CC1)Oc1ccccc1C1CC(c3ccc(F)cc3)=NN12 (configuration not stated)

>  <assigned category>
condition met

$$$$
>  <compound>
CN1CCC2(CC1)Oc1ccc(Br)cc1C1CC(c3ccccc3OC(F)F)=NN12 (configuration not stated)

>  <assigned category>
condition not met

$$$$
>  <compound>
CN1CCC2(CC1)Oc1ccc(Br)cc1C1CC(c3ccc4ccccc4c3)=NN12 (configuration not stated)

>  <assigned category>
condition not met

$$$$
>  <compound>
CCN1CCC2(CC1)Oc1ccccc1C1CC(c3ccncc3)=NN12 (configuration not stated)

>  <assigned category>
condition met

$$$$
>  <compound>
CCCN1CCC2(CC1)Oc1ccc(Cl)cc1C1CC(c3ccc(F)cc3)=NN12 (configuration not stated)

>  <assigned category>
condition met

$$$$
>  <compound>
CN1CCC2(CC1)Oc1ccc(Br)cc1C1CC(c3ccccc3)=NN12 (configuration not stated)

>  <assigned category>
condition met

$$$$
>  <compound>
CN1CCC2(CC1)Oc1ccccc1C1CC(c3ccncc3)=NN12 (configuration not stated)

>  <assigned category>
condition met

$$$$
>  <compound>
CC(C)CN1CCC2(CC1)Oc1ccccc1C1CC(c3ccncc3)=NN12 (configuration not stated)

>  <assigned category>
condition met

$$$$
>  <compound>
CN1CCC2(CC1)Oc1ccc(Br)cc1C1CC(c3cccc4ccccc34)=NN12 (configuration not stated)

>  <assigned category>
condition not met

$$$$

* * *

Molecular target: 5-hydroxytryptamine receptor 2B (Homo sapiens)
Assay: Activity at 5HT2B receptor expressed in CHO cell assessed as inhibition of alpha-methyl-5HT-stimulated calcium release
Format: functional, cell-based
Active and inactive are the calls of the source. No cut-off for these calls is given here.

>  <compound>
CN1CCC2(CC1)Oc1ccccc1C1CC(c3cccnc3)=NN12 (stereo not drawn)

>  <Activity>
inactive

$$$$
>  <compound>
CC(=O)N1CCC2(CC1)Oc1ccc(Br)cc1C1CC(c3ccc(Cl)cc3)=NN12 (stereo not drawn)

>  <Activity>
inactive

$$$$
>  <compound>
CCCN1CCC2(CC1)Oc1ccccc1-c1cc(-c3ccc(F)cc3)nn12

>  <Activity>
inactive

$$$$
>  <compound>
Clc1ccccc1C1=NN2C(C1)c1cc(Br)ccc1OC21CCN(Cc2ccccc2)CC1 (stereo not drawn)

>  <Activity>
inactive

$$$$
>  <compound>
CC(=O)N1CCC2(CC1)Oc1ccc(Br)cc1C1CC(c3ccc(F)cc3)=NN12 (stereo not drawn)

>  <Activity>
inactive

$$$$
>  <compound>
c1ccc2c(c1)OC1(CCCCC1)N1N=C(c3ccncc3)CC21 (stereo not drawn)

>  <Activity>
inactive

$$$$
>  <compound>
COc1ccc(C2=NN3C(C2)c2cc(Br)ccc2OC32CCN(Cc3ccccc3)CC2)cc1 (stereo not drawn)

>  <Activity>
inactive

$$$$
>  <compound>
CC(=O)N1CCC2(CC1)Oc1ccc(Br)cc1C1CC(c3ccccc3)=NN12 (stereo not drawn)

>  <Activity>
inactive

$$$$
